Assign activity (efficacy: larval mortality) to each entry below.
Test system: Cooperia curticei
Format: in vivo
Details: 20 ppm; after 5 days; 100% = all larvae killed
Give bare numbers, in %.

For orientation, consider the following solved cases.
COC(c1ccc(Cl)cc1Cl)C1(NC(=O)c2nccnc2C(F)(F)F)CC1 (stereo not shown)    100
CCOC(c1ccc(Cl)cc1Cl)C(C)NC(=O)c1ccccc1[N+](=O)[O-] (stereo not shown)    100
CCOC(c1ccc(Cl)cc1Cl)C(C)NC(=O)c1ccsc1I (stereo not shown)    100
CCC(NC(=O)c1nccnc1C(F)(F)F)C(OC)c1ccc(Cl)cc1Cl (stereo not shown)    90
CCOC(c1ccc(Cl)cc1Cl)C(C)NC(=O)c1nccnc1C(F)(F)F (stereo not shown)    100

I need activity (efficacy: larval mortality) for every entry listed below, if you could help.
1. COC(c1ccccc1Cl)C(C)NC(=O)c1cccnc1C(F)(F)F (stereo not shown)
2. COC(c1ccc(Cl)cc1)C(C)NC(=O)c1ccccc1C(F)(F)F (stereo not shown)
3. COC(c1ccc(Cl)cc1)C(C)NC(=O)c1ccccc1Cl (stereo not shown)
4. C=CCOC(CNC(=O)c1cccnc1Cl)c1ccc(Cl)cc1 (stereo not shown)

Response:
1: 90; 2: 80; 3: 80; 4: 80

Query: Look at this compound and give its reported activity (efficacy: larval mortality). COC(c1ccc(Cl)cc1)C(C)NC(=O)c1ccoc1I (stereo not shown)
Response: 80

----------
Test: Measurement of log P values by HPLC on reversed phase columns (EEC directive 79/831 Annex V.A8; methods [a] pH 2.3, [b] pH 2.7, [c] pH 7.8)
Type: physicochemical
Conditions: method [b]: LC-MS, pH 2.7, 0.1% formic acid in water / acetonitrile
Protocol: Measurement of log P-values: Measurement of log P values was performed according EEC directive 79/831 Annex V.A8 by HPLC (High Performance Liquid Chromatography) on reversed phase columns with the following methods: ^[a] Measurement was done at pH 2.3 with 0.1% phosphoric acid and acetonitrile as eluent with a linear gradient from 10% acetonitrile to 95% acetonitrile. […]
Answer each item with its documented logP.

Consider the worked cases shown below.
COC(c1ccc(Cl)cc1Cl)C(C)(C)NC(=O)c1occc1Br (centres unmarked)    4.59^[b]
CCOC(c1ccc(Cl)cc1Cl)C(C)NC(=O)c1cccnc1C(F)F (centres unmarked)    3.57^[b]
COC(c1ccc(Cl)cc1Cl)C(C)(C)NC(=O)c1ccccc1C(F)(F)F (centres unmarked)    4.68^[b]
COC(c1ccc(Cl)cc1)C(C)NC(=O)c1snc(Cl)c1Cl (centres unmarked)    4.34^[b]

Okay, now this compound:
Query: logP lookup needed for COC(CNC(=O)c1c(C(F)F)nn(C)c1F)c1cc(Cl)cc(Cl)c1 (centres unmarked) , thanks.
Response: 3.33^[b]

----------
Assay: Measurement of log P values by HPLC on reversed phase columns (EEC directive 79/831 Annex V.A8; methods [a] pH 2.3, [b] pH 2.7, [c] pH 7.8)
Assay type: physicochemical
Details: method [b]: LC-MS, pH 2.7, 0.1% formic acid in water / acetonitrile
PROPERTY_NAME: logP

Known results for compounds:
COC(CNC(=O)c1sccc1Cl)c1ccc(Cl)cc1 (centres unmarked) [Compound 69]    3.41^[b]
CCOC(c1ccc(Cl)cc1Cl)C(C)NC(=O)c1c(C(F)F)nn(C)c1Cl (centres unmarked) [Compound 46]    4.46^[b]
COC(c1ccc(Cl)cc1Cl)C(C)(C)NC(=O)c1sccc1Cl (centres unmarked) [Compound 78]    5.34^[b]
COC(c1cc(Cl)cc(Cl)c1)C(C)NC(=O)c1nccnc1C(F)(F)F (centres unmarked) [Compound 95]    3.74^[b]

Can you give me logP for all of these, one by one?
1. COC(c1ccc(Cl)cc1Cl)C1(NC(=O)c2cccnc2Cl)CC1 (centres unmarked) [Compound 98]
2. COC(c1ccc(Cl)cc1)C(C)NC(=O)c1sccc1Cl (centres unmarked) [Compound 66]
3. COC(CNC(=O)c1nccnc1C(F)(F)F)c1ccc(Cl)cc1Cl (centres unmarked) [Compound 103]
4. COC(c1ccc(Cl)cc1Cl)C1(NC(=O)c2cccnc2C(F)(F)F)CC1 (centres unmarked) [Compound 100]
5. COC(c1ccc(Cl)cc1)C(C)NC(=O)c1sccc1Br (centres unmarked) [Compound 65]
6. COC(c1ccc(Cl)cc1)C(C)(C)NC(=O)c1cccnc1Cl (centres unmarked) [Compound 81]
7. COC(c1ccc(Cl)cc1)C(C)(C)NC(=O)c1ccccc1C(F)(F)F (centres unmarked) [Compound 85]

Response:
1. 3.00^[b]
2. 3.83^[b]
3. 3.35^[b]
4. 3.37^[b]
5. 3.89^[b]
6. 3.24^[b]
7. 4.25^[b]
